Data origin: patent US9725434B2

molecular target: human orexin-1 receptor (hOX1R) (Homo sapiens); assay: FLIPR Ca2+ Flux Assay, hOX1R; conditions: CHO cells expressing hOX1R; agonist 70 pM Ala-6,12 orexin-A
Exam item: assign Satisfied to entries whose IC50 is below 2000 nM and Not satisfied to entries at or above 2000 nM. Note that a value of exactly 2000 nM receives Not satisfied.

Answer whether the compound CC(O)c1cccc(O[C@@H]2CC[C@@H](C)N(C(=O)c3ccccc3-n3nccn3)C2)c1 (stereo partly shown) has IC50 strictly less than 2000 nM
Not satisfied

Answer whether the compound C[C@@H]1CC[C@@H](Oc2cccc(C(C)(C)O)c2)CN1C(=O)c1ccccc1-n1nccn1 has IC50 strictly less than 2000 nM
Not satisfied

Answer whether the compound C[C@@H]1CC[C@@H](Oc2cccc3c2CCC[C@]3(C)O)CN1C(=O)c1ccccc1-n1nccn1 has IC50 strictly less than 2000 nM
Satisfied

Answer whether the compound C[C@@H]1CC[C@@H](Oc2cc(C3(O)CCC3)ccn2)CN1C(=O)c1ccccc1-n1nccn1 has IC50 strictly less than 2000 nM
Satisfied

Answer whether the compound C[C@@H]1CC[C@@H](Oc2cccc3c2CC[C@@H]3O)CN1C(=O)c1ccccc1-n1nccn1 has IC50 strictly less than 2000 nM
Satisfied

Answer whether the compound C[C@@H]1CC[C@@H](Oc2cc([C@@](C)(O)C3CC3)ccn2)CN1C(=O)c1ccccc1-n1nccn1 has IC50 strictly less than 2000 nM
Satisfied

Answer whether the compound CC(O)c1cccc(O[C@@H]2CC[C@@H](C)N(C(=O)c3ccccc3-c3ncccn3)C2)c1 (stereo partly shown) has IC50 strictly less than 2000 nM
Not satisfied

###

biological target: human orexin-2 receptor (hOX2R) (Homo sapiens (Human), UniProt O43614); assay: FLIPR Ca2+ Flux Assay, hOX2R; settings: CHO cells expressing hOX2R; agonist 70 pM Ala-6,12 orexin-A
Sequence (O43614 whole entry): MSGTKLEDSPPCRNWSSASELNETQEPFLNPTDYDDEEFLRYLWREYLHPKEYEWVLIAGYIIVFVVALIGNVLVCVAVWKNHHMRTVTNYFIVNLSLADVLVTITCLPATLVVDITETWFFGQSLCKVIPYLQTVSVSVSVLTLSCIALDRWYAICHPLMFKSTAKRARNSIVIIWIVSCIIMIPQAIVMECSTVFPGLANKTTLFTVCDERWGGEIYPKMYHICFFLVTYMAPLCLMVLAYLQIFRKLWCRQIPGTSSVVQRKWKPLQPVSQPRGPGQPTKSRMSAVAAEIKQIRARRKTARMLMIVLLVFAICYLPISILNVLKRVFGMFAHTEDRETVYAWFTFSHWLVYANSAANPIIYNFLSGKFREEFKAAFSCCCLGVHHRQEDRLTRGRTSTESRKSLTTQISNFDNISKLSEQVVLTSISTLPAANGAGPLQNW
Exam item: assign condition met to entries whose IC50 is below 20 nM and condition not met to entries at or above 20 nM. Note that a value of exactly 20 nM receives condition not met.

Answer whether the compound C[C@@H]1CC[C@@H](Oc2nccc(C(C)(C)O)c2F)CN1C(=O)c1ccccc1-n1nccn1 has IC50 strictly less than 20 nM
condition met

Answer whether the compound C[C@@H]1CC[C@@H](Oc2cccc3c2CC[C@H]3O)CN1C(=O)c1ccccc1-n1nccn1 has IC50 strictly less than 20 nM
condition not met

Answer whether the compound CC(O)c1cccc(O[C@@H]2CC[C@@H](C)N(C(=O)c3ccccc3-n3nccn3)C2)c1 (some centres unmarked) has IC50 strictly less than 20 nM
condition not met

Answer whether the compound CCC(C)(O)c1ccnc(O[C@@H]2CC[C@@H](C)N(C(=O)c3ccccc3-n3nccn3)C2)c1 (some centres unmarked) has IC50 strictly less than 20 nM
condition met

Answer whether the compound C[C@@H]1CC[C@@H](Oc2cccc(C(C)(O)C(F)(F)F)c2)CN1C(=O)c1ccccc1-n1nccn1 (some centres unmarked) has IC50 strictly less than 20 nM
condition not met

Answer whether the compound C[C@@H]1CC[C@@H](Oc2cccc(C(C)(O)C(F)F)c2)CN1C(=O)c1ccccc1-n1nccn1 (some centres unmarked) has IC50 strictly less than 20 nM
condition met

Answer whether the compound C[C@@H]1CC[C@@H](Oc2cccc(C(C)(C)O)c2)CN1C(=O)c1ccccc1-n1nccn1 has IC50 strictly less than 20 nM
condition not met
